These entries and their values trace back to PubChem BioAssay AID330.

System: P388 leukemia ip, CD2F1 mice, survival T/C
protocol: NCI In Vivo Anticancer Drug Screen. Data for tumor model P388 Leukemia (intraperitoneal) in CD2F1 (CDF1) mice
condition info: endpoint: median survival time; dose: 400.0 mg/kg/injection; schedule: Q04DX003 (ip); vehicle: saline with Tween-80; higher = longer survival
Toxic doses and inconclusive results are not listed.
property name: T/C

Study these solved cases before continuing.
compound: CN1C(=O)C2SC(=NNc3ccccc3)SC1C(=O)N2C
T/C: 100 % of control

compound: CCN(CC)CCN1C(=O)CN=C(c2ccc[nH]2)c2cc(Cl)ccc21
T/C: 95 % of control

compound: CC1(C)OC2C(CO)OC(n3ncc(=S)[nH]c3=O)C2O1 (stereo unspecified)
T/C: 97 % of control

compound: O=C1CCc2nc(-c3ccccc3)ncc21
T/C: 88 % of control

compound: CCOC(=O)c1c(N)sc2c1CCCCC2
T/C: 100 % of control

Here's the next entry for you.
Input line: Given the entry "CCOC(=O)c1cn(C)c2c1C(O)=C(C(=O)OC)CC(=O)N2" , report its measured T/C.
Output line: 117 % of control
